Tested on: L1210 leukemia ip in BDF1 mice, survival T/C
Experiment: NCI In Vivo Anticancer Drug Screen. Data for tumor model L1210 Leukemia (intraperitoneal) in B6D2F1 (BDF1) mice
Details: endpoint: mean survival time; dose: 400.0 mg/kg/injection; schedule: Q04DX003 (ip); vehicle: Klucel (hydroxypropylcellulose) (HPC); higher = longer survival
Toxic doses and inconclusive results are not listed.
observation-type: T/C

1) Cc1cccc(C)c1NC(=O)Oc1ccccc1C(N)=O ... 94 % of control
2) CC(=O)Nc1ccc2ccc3ccccc3c2c1 ... 94 % of control
3) COC(=O)CN(C(=O)c1ccc(OC(C)=O)cc1)c1ccccc1 ... 96 % of control

====

# Lookup of reported T/C keyed by entry
Test system: L1210 leukemia ip in BDF1 mice, survival T/C
Assay: NCI In Vivo Anticancer Drug Screen. Data for tumor model L1210 Leukemia (intraperitoneal) in B6D2F1 (BDF1) mice
Conditions: endpoint: mean survival time; dose: 50.0 mg/kg/injection; schedule: Q04DX003 (ip); vehicle: saline; higher = longer survival
Inconclusive results and toxic doses are left out.
observation-type: T/C

1. CCCCN(CCCC)CCN(CCCC)CCN(CCCC)CCCC ... 98 % of control
2. CCN(CC)CCC(=O)c1cccc2c1OC(C)(C)C2 ... 103 % of control
3. O[C@H](c1cc(C(F)(F)F)nc2c(C(F)(F)F)cccc12)[C@@H]1CCCCN1 ... 97 % of control
4. Clc1ccc2c(c1)ncn1nnnc21 ... 95 % of control
5. CC(C#N)C(N)=O (stereo unspecified) ... 105 % of control
6. Cc1ccc2c3nc4ccccc4c-3csc2c1 ... 87 % of control

====

# Lookup of reported T/C keyed by entry
Tested on: L1210 leukemia ip in BDF1 mice, survival T/C
Assay: NCI In Vivo Anticancer Drug Screen. Data for tumor model L1210 Leukemia (intraperitoneal) in B6D2F1 (BDF1) mice
Settings: endpoint: mean survival time; dose: 200.0 mg/kg/injection; schedule: Q01DX001 (ip); vehicle: carboxymethylcellulose (CMC); higher = longer survival
Experimental: The antitumor activity of compounds was measured in mice bearing transplantable tumors. Survival or tumor size were measured and the results are expressed as the measurement made in the treated group (T) divided by the measurement made in the vehicle treated control group (C). The tumor model used in this assay is L1210 Leukemia (intraperitoneal) in B6D2F1 (BDF1) mice
Inconclusive results and toxic doses are left out.
observation-type: T/C

1) O=C(Nc1ccccc1)Nc1cccc(C(F)(F)F)c1 ... 107 % of control
2) O=C1c2ccccc2C(=O)N1O ... 95 % of control
3) O=C1c2ccccc2-c2cc(Cl)c(N=Cc3ccc4c(c3)OCO4)cc21 ... 102 % of control

====

Test system: L1210 leukemia ip in BDF1 mice, survival T/C
Test: NCI In Vivo Anticancer Drug Screen. Data for tumor model L1210 Leukemia (intraperitoneal) in B6D2F1 (BDF1) mice
Details: endpoint: mean survival time; dose: 20.0 mg/kg/injection; schedule: Q01DX001 (ip); vehicle: saline; higher = longer survival
Inconclusive results and toxic doses are left out.
# Lookup of reported T/C keyed by entry
observation-type: T/C

1. Cc1nnc(NS(=O)(=O)c2ccc(N=Nc3c(N)nc(N)[nH]c3=O)cc2)s1 ... 98 % of control
2. CCCCN(CCCC)CCCNc1c2c(nc3ccccc13)CCCC2 ... 93 % of control
3. CCCCCCCCCCCCC[n+]1cccc(C#N)c1 ... 103 % of control
4. Oc1ccc(C2=CSC3=NCCN23)cc1 ... 93 % of control

====

# Lookup of reported T/C keyed by entry
Test system: L1210 leukemia ip in BDF1 mice, survival T/C
Assay: NCI In Vivo Anticancer Drug Screen. Data for tumor model L1210 Leukemia (intraperitoneal) in B6D2F1 (BDF1) mice
Conditions: endpoint: mean survival time; dose: 100.0 mg/kg/injection; schedule: Q01DX009 (ip); vehicle: saline with Tween-80; higher = longer survival
Inconclusive results and toxic doses are left out.
observation-type: T/C

1. CC(C)c1ccc(C(=O)O)cc1S(=O)(=O)F ... 95 % of control
2. O=C(O)C(O)(C1CCCCC1)C1CCC2CCC3CCCC1C32 (stereo not drawn) ... 87 % of control
3. O=C(O)C1CCC(CC2CC3CCC2C3)CC1 (stereo not drawn) ... 90 % of control

====

Tested on: L1210 leukemia ip in BDF1 mice, survival T/C
Experiment: NCI In Vivo Anticancer Drug Screen. Data for tumor model L1210 Leukemia (intraperitoneal) in B6D2F1 (BDF1) mice
Conditions: endpoint: mean survival time; dose: 200.0 mg/kg/injection; schedule: Q01DX001 (ip); vehicle: saline; higher = longer survival
Toxic doses and inconclusive results are not listed.
# Lookup of reported T/C keyed by entry
observation-type: T/C

1) CC12CCC3(CC1CC/C(=C\c1ccco1)C2=O)OCCO3 (stereo unspecified) ... 92 % of control
2) Cc1cccc2c1SCCC2=O ... 92 % of control
3) COC1(c2ccccc2)Oc2ccccc2C(=O)C1(O)C[N+](=O)[O-] (stereo unspecified) ... 95 % of control
4) Cc1ccc(C(C)C)c(OC(=O)Nc2ccc(S(=O)(=O)NC3CCCCC3)cc2)c1 ... 96 % of control
5) CC(=O)Nc1ccc(SS(=O)(=O)c2ccc(NC(C)=O)cc2)cc1 ... 101 % of control
6) CCC1c2ccc3cc(OC)ccc3c2C(=O)C1CC(=O)O (stereo unspecified) ... 107 % of control

====

Tested on: L1210 leukemia ip in BDF1 mice, survival T/C
Experiment: NCI In Vivo Anticancer Drug Screen. Data for tumor model L1210 Leukemia (intraperitoneal) in B6D2F1 (BDF1) mice
Settings: endpoint: mean survival time; dose: 200.0 mg/kg/injection; schedule: Q01DX009 (ip); vehicle: Klucel (hydroxypropylcellulose) (HPC); higher = longer survival
Toxic doses and inconclusive results are not listed. Peptide text beside a SMILES is read from it. * marks the point of attachment. Cbz = O=C(OCc1ccccc1)*
observation-type: T/C

1) O=c1ccn(CCCc2ccccc2)c(=O)[nH]1 ... 109 % of control
2) CSc1ccc(NC(=O)Nc2cccc(O)c2)cc1 ... 103 % of control
3) N#Cc1nc2c(n(O)c1=N)CCC/C2=C\c1ccccc1 ... 93 % of control
4) COc1ccc(S(=O)(=O)NC(=O)NCC=C(C)C)cc1 ... 96 % of control
5) COC(=O)c1cc(O)c(C(=O)OC)s1 ... 98 % of control
6) O=C(O)CNC(=O)CNC(=O)OCc1ccccc1 (Cbz-Gly-Gly-OH) ... 95 % of control
7) O=C(O)/C(=C\c1ccc([N+](=O)[O-])cc1)c1cccc2ccccc12 ... 98 % of control

====

Tested on: L1210 leukemia ip in BDF1 mice, survival T/C
Experiment: NCI In Vivo Anticancer Drug Screen. Data for tumor model L1210 Leukemia (intraperitoneal) in B6D2F1 (BDF1) mice
Details: endpoint: mean survival time; dose: 300.0 mg/kg/injection; schedule: Q01DX001 (ip); vehicle: saline; higher = longer survival
Inconclusive results and toxic doses are left out.
observation-type: T/C

1) Cc1ccc(S(=O)(=O)OCC2(COS(=O)(=O)c3ccc(C)cc3)CCC2(COS(=O)(=O)c2ccc(C)cc2)COS(=O)(=O)c2ccc(C)cc2)cc1 ... 93 % of control
2) CCC(C)N1C(=O)CCC1=O (centres undefined) ... 101 % of control
3) CC(C)CNCc1cc([N+](=O)[O-])ccc1O ... 94 % of control
4) NC1=NC(c2ccccc2)C2=C(N1)C(=O)N(c1ccc(Br)cc1)C2 (centres undefined) ... 95 % of control

====

# Lookup of reported T/C keyed by entry
System: L1210 leukemia ip in BDF1 mice, survival T/C
Assay: NCI In Vivo Anticancer Drug Screen. Data for tumor model L1210 Leukemia (intraperitoneal) in B6D2F1 (BDF1) mice
Details: endpoint: mean survival time; dose: 400.0 mg/kg/injection; schedule: Q01DX009 (ip); vehicle: saline with Tween-80; higher = longer survival
Toxic doses and inconclusive results are not listed.
observation-type: T/C

1. CC(C)CC(Br)C(=O)NC(CC(C)C)C(=O)O (centres undefined) ... 92 % of control
2. CCCC(C)(COC(N)=O)COC(N)=O ... 109 % of control
3. Cc1c2ccccc2c(CSCCC(N)C(=O)O)c2ccccc12 (centres undefined) ... 110 % of control
4. CCOC(=O)c1ccc(NC(=S)NC(=O)c2ccco2)cc1 ... 98 % of control

====

Tested on: L1210 leukemia ip in BDF1 mice, survival T/C
Experiment: NCI In Vivo Anticancer Drug Screen. Data for tumor model L1210 Leukemia (intraperitoneal) in B6D2F1 (BDF1) mice
Settings: endpoint: mean survival time; dose: 100.0 mg/kg/injection; schedule: Q01DX001 (ip); vehicle: saline with Tween-80; higher = longer survival
Inconclusive results and toxic doses are left out.
observation-type: T/C

1) O=Cc1[nH]c(=S)[nH]c(=O)c1Cc1ccc2ccccc2c1 ... 104 % of control
2) CSc1ccc(NC(=O)c2ccc(Cl)cc2Cl)cc1 ... 89 % of control
3) Cc1nc2ccc(-c3ccccc3)cc2s1 ... 111 % of control
4) CCOC(=O)c1c[nH]c2cc(OCC(C)C)c(OCC(C)C)cc2c1=O ... 104 % of control
5) c1ccc(Nc2nnnn2C2CCCCC2)cc1 ... 104 % of control
6) Cc1cccc(NC(=O)OC/C=C/c2ccccc2)c1 ... 114 % of control
7) NNC(=O)C1CCN1C(c1ccccc1)c1ccccc1 (configuration not stated) ... 97 % of control
8) COc1ccc(S(=O)(=O)F)cc1C(=O)O ... 100 % of control
9) CCCCCCC(CCCCCC)c1ccccc1 ... 90 % of control
10) CCOC(=O)C(CCCO)C(=O)OCC ... 98 % of control
11) CC(C)(C)C1CCC2OC(C)(C(C)(C)C)CC(C(C)(C)C)C2C1 (configuration not stated) ... 100 % of control
12) CC(C)(C)C(=O)NCc1ccccc1 ... 100 % of control
